# System: HCT-116 colon
# protocol-summary: NCI-60 one-dose screen, 48 h (100 = growth as untreated, 0 = no growth, -100 = all killed)
# study-conditions: 10 µM unless noted
The panel holds about 83,000 compounds, 20% with a hit somewhere; the sample as a whole holds those more often. Calls of active or inactive are those of the source. Rule for the calls: active = growth percent below 10; inactive = the rest.
Here, each record is paired with measured growth data.

Here are 3 compounds together with their reported answers.
INSERT INTO measurements (compound, measured) VALUES
  ('COc1ccc(/C=N/C2=C(C#N)C(c3ccccc3)c3ccc4ccccc4c3O2)cc1 (stereo not drawn)', '10.3% (inactive)'),
  ('COc1cc2ncnc(Nc3ccc(F)c(Cl)c3)c2cc1OCC(=O)N1CCN(c2ccccc2)CC1', '67.7% (inactive)'),
  ('Cc1cc(C(=O)O)c(C)n1-c1cccc(C(=O)O)c1', '35.3% (inactive)');

Q: Write down measured growth (HCT-116 colon) for this compound. CC1OC(n2c3ccccc3c3c4c(c5c6ccccc6[nH]c5c32)C(=O)N(CCN2CCCC2)C4=O)CC(O)C1O (stereo not drawn)
Ans: 25.8% (inactive)

Q: Write down measured growth (HCT-116 colon) for this compound. O=C(CN1CCCCC1)Nc1nc(-c2cc3ccccc3oc2=O)cs1
Ans: 101% (inactive)

Q: Write down measured growth (HCT-116 colon) for this compound. N#C/C(=C\c1c(-c2ccccc2)[nH]c2ccccc12)C(N)=O
Ans: 76.9% (inactive)

Q: Write down measured growth (HCT-116 colon) for this compound. CCCCNC(=O)Oc1ccc(/C(=C(/C)Cc2ccc(OC)cc2)c2ccc(OCCN(CC)CC)cc2)cc1
Ans: 42.7% (inactive)

Q: Write down measured growth (HCT-116 colon) for this compound. COCCn1cc(-c2nc(-c3cc4cccnc4[nH]3)cs2)c2cc(OC)ccc21
Ans: 30.3% (inactive)

Q: Write down measured growth (HCT-116 colon) for this compound. COC1/C=C/OC2(C)Oc3c(C)c(O)c4c(O)c(c(/C=N/Nc5ccc([N+](=O)[O-])cc5[N+](=O)[O-])c(O)c4c3C2=O)NC(=O)C(C)=C/C=C/C(C)C(O)C(C)C(O)C(C)C(OC(C)=O)C1C (stereo not drawn)
Ans: -46.7% (active)

Q: Write down measured growth (HCT-116 colon) for this compound. CC(C)c1ccc(C(=O)Nc2nc3ccc(O)c(CN(C)C)c3s2)cc1
Ans: 47.3% (inactive)

Q: Write down measured growth (HCT-116 colon) for this compound. N#Cc1c(-c2ccccc2)cc(-c2ccc(Nc3nc(Nc4ccc(Cl)cc4)nc(Nc4ccc(Cl)cc4)n3)cc2)nc1N
Ans: 4.99% (active)

Q: Write down measured growth (HCT-116 colon) for this compound. Cc1cn(-c2cc(NC(=O)c3cccc(C#Cc4cccc5[nH]nc(N)c45)c3)cc(C(F)(F)F)c2)cn1
Ans: 23.5% (inactive)

Q: Write down measured growth (HCT-116 colon) for this compound. CC(=O)O[C@H]1CC2CCC3C(CC[C@@]4(C)C3C[C@H]([N+]3(C)CCCCC3)[C@@H]4OC(C)=O)[C@@]2(C)C[C@@H]1N1CCCCC1 (stereo partly drawn)
Ans: 101% (inactive)

Q: Write down measured growth (HCT-116 colon) for this compound. CC(C)c1ccc(-n2c(=S)[nH]c3sc4cc(O)ccc4c3c2=O)cc1
Ans: 98.4% (inactive)

Q: Write down measured growth (HCT-116 colon) for this compound. C=C1C(=O)O[C@H]2[C@H]1CC/C(COC(=O)/C=C\C(=O)NCc1ccc(Cn3c(=O)sn(CCI)c3=O)cc1)=C\CC[C@@]1(C)O[C@@H]21
Ans: 19% (inactive)

Q: Write down measured growth (HCT-116 colon) for this compound. C=CC(=O)N1CCN(c2cccc(Oc3nccc(Nc4nnc(-c5ccc(Br)cc5)s4)n3)c2)CC1
Ans: 58.4% (inactive)

----------
# Tested on: MDA-MB-435 melanoma
# protocol-summary: NCI-60 one-dose screen, 48 h (100 = growth as untreated, 0 = no growth, -100 = all killed)
# study-conditions: 10 µM unless noted
Compounds without any hit were thinned out: in the full panel of roughly 83,000, 20% have a hit.
Here, each record is paired with measured growth data.
# number only, unit % dropped from output

INSERT INTO results (compound, assay_metric, units_symbol, measured) VALUES
  ('COC(=O)c1cc(N=C2NC(=O)/C(=C/C=C/c3ccccc3)S2)ccc1O', 'growth', '%', -35.6);

Q: Specify measured growth for COc1ccc(-c2ccc(-c3ccc(C(=N)N)cc3)s2)cc1Cl .
Ans: -65.2

Q: Specify measured growth for O=C1/C(=C/c2ccccc2O)CC/C1=C\c1ccccc1O .
Ans: 26.4

Q: Specify measured growth for Fc1cccc(Oc2ccc(Nc3ncnc4ccc(OCCCN5CCOCC5)cc34)cc2Cl)c1 .
Ans: 54.3

Q: Specify measured growth for O=C(O)CCN1C(=O)/C(=C/C(Cl)=C/c2ccccc2)SC1=S .
Ans: -63.4

Q: Specify measured growth for C=C(C)[C@@H]1CC[C@]2(C(=O)O)CC[C@]3(C)[C@H](CC[C@@H]4[C@@]5(C)CCC(NC(=O)c6cccc(OC(C)=O)c6OC(C)=O)C(C)(C)[C@@H]5CC[C@]43C)[C@@H]12 (some centres undefined) .
Ans: -56.4

Q: Specify measured growth for Nc1n[nH]c2cccc(C#Cc3cccc(NC(=O)c4cc(F)cc(C(F)(F)F)c4)c3)c12 .
Ans: 71.2

Q: Specify measured growth for CCn1c(SCC(=O)N/N=C(\C)c2ccc(Cl)cc2)nc2c1c(=O)n(C)c(=O)n2C .
Ans: 100

Q: Specify measured growth for c1ccc2cc(C[n+]3ccn(CCCCCCCCCCn4cc[n+](Cc5ccc6ccccc6c5)c4)c3)ccc2c1 .
Ans: 18.2

Q: Specify measured growth for COc1ccc(C2=C(Br)C(=O)c3nc(C)ccc3C2=O)cc1 .
Ans: 103

Q: Specify measured growth for C=CCOC(=O)Nc1cccn([C@H](Cc2ccccc2)C(=O)NCCC(C)C)c1=O .
Ans: 108

Q: Specify measured growth for CCNCCNc1cc(C2CCCCC2)c(C#N)c2nc3ccccc3n12 .
Ans: -38.6

Q: Specify measured growth for CC(C)c1ccc(C(=O)Nc2nc3ccc(O)c(CN(C)C)c3s2)cc1 .
Ans: 55.4

Q: Specify measured growth for Fc1cc2c(cc1Cl)N(c1ncnc3ccc(-c4ccc5n[nH]nc5c4)cc13)CC2 .
Ans: 92.4

Q: Specify measured growth for N#Cc1c(-c2ccccc2)cc(-c2ccc(Nc3nc(Nc4ccc(Cl)cc4)nc(Nc4ccc(Cl)cc4)n3)cc2)nc1N .
Ans: -34.4

Q: Specify measured growth for CCOc1ccc(NC(=O)CSc2oc(-c3ccccc3)nc2S(=O)(=O)c2ccc(C)cc2)cc1 .
Ans: 87.4

Q: Specify measured growth for O=S(=O)(NCCNc1nccc(-c2c(-c3ccc(F)c(O)c3)nc3sccn23)n1)c1ccc(O)cc1 .
Ans: 9.31

Q: Specify measured growth for O=C(Nc1nc2ccc(C(=O)N3CCN(/C=C/c4ccccc4)CC3)cc2s1)c1ccc(NCCc2ccccc2)c([N+](=O)[O-])c1 .
Ans: 55.8

Q: Specify measured growth for COc1ccc(F)cc1/C=C/C(=O)/C=C(/C=C/c1cc(F)ccc1OC)OB(F)F .
Ans: 2.57

----------
# Test system: NCI/ADR-RES ovarian
# protocol-summary: NCI-60 one-dose screen, 48 h (100 = growth as untreated, 0 = no growth, -100 = all killed)
# study-conditions: 10 µM unless noted
The panel holds about 83,000 compounds, 20% with a hit somewhere; the sample as a whole holds those more often.
Would you please tag the item YES when its growth is 90% or above, and NO when it is below?

INSERT INTO assay_data (compound, class) VALUES
  ('OCCn1cc(-c2nc(-c3c[nH]c4ncccc34)cs2)c2cc(F)ccc21', 'NO'),
  ('C=C1CC[C@@H]2[C@](C)(COC(C)=O)[C@H](OC(C)=O)CC[C@@]2(C)[C@@H]1CC(Nc1ccc(S(=O)(=O)Nc2ncccn2)cc1)C1=CCOC1=O (stereo not given in full)', 'NO'),
  ('N#Cc1c(-c2ccc(Cl)cc2)c(C#N)c2c(C#N)c(N)nn2c1N', 'YES');

Q: Please tell me: is the compound CCOC(=O)c1c2c(n3cccc(F)c13)C(=O)c1ncccc1C2=O at or over 90% in terms of growth?
Ans: NO

Q: Please tell me: is the compound Cc1cn(-c2cc(NC(=O)c3cncc(C#Cc4cnc(N)c5ncccc45)c3)cc(C(F)(F)F)c2)cn1 at or over 90% in terms of growth?
Ans: NO

Q: Please tell me: is the compound CC1=C([Se]CC(OC(=O)CC[Se]c2ccccc2)C(=O)NC(C)(C)C)C(=O)c2ccccc2C1=O (stereo not given) at or over 90% in terms of growth?
Ans: NO

Q: Please tell me: is the compound O=C(Nc1cccc2ccccc12)NC1CC1 at or over 90% in terms of growth?
Ans: YES

Q: Please tell me: is the compound CC(C)c1ccc(Cc2cnc(NC(=O)c3cc(Br)cs3)s2)cc1 at or over 90% in terms of growth?
Ans: NO

Q: Please tell me: is the compound Cc1cc(N2CCN(CCNc3ccnc4cc(Cl)ccc34)CC2)nc(N2CCOCC2)n1 at or over 90% in terms of growth?
Ans: NO
